IC50 reference
study_target: PDE5 (Bos taurus)
Construct: isolated from the smooth muscle of ox aorta
experimental_protocol: PDE5 inhibition, enzyme isolated from smooth muscle of ox aorta
API: value field is a number in µM; no unit string.

molecule	study_target	measured_value
COc1cc2c(c(O)c1OC)C(=O)CC(c1cc(O)ccc1O)O2 (centres unmarked) [Dioclein]	PDE5 (Bos taurus)	23

Record COc1c(O)c(CC=C(C)C)c2c(c1O)C(=O)[C@H](O)[C@@H](c1ccccc1O)O2 [Floranol] , field IC50: 7.14

---

study_target: PDE2 (Homo sapiens, UniProt O00408)
Construct: on the PDE2 isolated from human platelets; from tissue; host or cells: human platelets
Sequence (O00408 whole entry): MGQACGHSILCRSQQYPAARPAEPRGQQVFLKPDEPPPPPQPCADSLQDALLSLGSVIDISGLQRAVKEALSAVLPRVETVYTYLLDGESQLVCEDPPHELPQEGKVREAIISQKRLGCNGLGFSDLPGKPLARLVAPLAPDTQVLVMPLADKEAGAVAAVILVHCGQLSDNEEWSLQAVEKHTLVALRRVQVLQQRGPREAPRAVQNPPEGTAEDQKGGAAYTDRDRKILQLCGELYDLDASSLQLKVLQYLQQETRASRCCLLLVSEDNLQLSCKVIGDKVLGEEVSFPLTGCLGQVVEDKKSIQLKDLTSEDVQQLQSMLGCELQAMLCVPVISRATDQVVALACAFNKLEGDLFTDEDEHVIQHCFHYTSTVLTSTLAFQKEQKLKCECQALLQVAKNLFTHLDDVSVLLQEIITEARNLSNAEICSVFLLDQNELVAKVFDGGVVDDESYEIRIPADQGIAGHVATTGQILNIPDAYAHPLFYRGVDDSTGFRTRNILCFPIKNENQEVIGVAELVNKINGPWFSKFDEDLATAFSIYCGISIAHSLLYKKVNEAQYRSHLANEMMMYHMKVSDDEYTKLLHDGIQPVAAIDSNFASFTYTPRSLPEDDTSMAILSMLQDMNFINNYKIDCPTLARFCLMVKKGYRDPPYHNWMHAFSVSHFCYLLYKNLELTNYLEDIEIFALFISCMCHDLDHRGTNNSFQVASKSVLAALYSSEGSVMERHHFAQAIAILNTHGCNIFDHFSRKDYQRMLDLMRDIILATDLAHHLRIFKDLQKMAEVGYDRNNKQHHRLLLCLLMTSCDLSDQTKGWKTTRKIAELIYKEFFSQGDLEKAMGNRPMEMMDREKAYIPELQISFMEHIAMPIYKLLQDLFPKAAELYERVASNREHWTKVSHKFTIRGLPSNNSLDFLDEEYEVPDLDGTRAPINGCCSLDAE
experimental_protocol: PDE2 inhibition, enzyme isolated from human platelets
Format: biochemical
setup_conditions: basal; read-out: IC50 Basal PDE2
property_measured: IC50 (µM)
API: value field is a number in µM; no unit string.

compound	measured_value
COc1c(O)c(CC=C(C)C)c2c(c1O)C(=O)[C@H](O)[C@@H](c1ccccc1O)O2	26.8

Consider now this further compound.
Reading of IC50 for COc1cc2c(c(O)c1OC)C(=O)CC(c1cc(O)ccc1O)O2 (centres unmarked) with PDE2 (Homo sapiens, UniProt O00408): 100

Cited source for all entries: patent US20090270495A1
